- test-target: D(2) dopamine receptor (Bos taurus, UniProt P20288)
- Sequence (P20288 whole entry): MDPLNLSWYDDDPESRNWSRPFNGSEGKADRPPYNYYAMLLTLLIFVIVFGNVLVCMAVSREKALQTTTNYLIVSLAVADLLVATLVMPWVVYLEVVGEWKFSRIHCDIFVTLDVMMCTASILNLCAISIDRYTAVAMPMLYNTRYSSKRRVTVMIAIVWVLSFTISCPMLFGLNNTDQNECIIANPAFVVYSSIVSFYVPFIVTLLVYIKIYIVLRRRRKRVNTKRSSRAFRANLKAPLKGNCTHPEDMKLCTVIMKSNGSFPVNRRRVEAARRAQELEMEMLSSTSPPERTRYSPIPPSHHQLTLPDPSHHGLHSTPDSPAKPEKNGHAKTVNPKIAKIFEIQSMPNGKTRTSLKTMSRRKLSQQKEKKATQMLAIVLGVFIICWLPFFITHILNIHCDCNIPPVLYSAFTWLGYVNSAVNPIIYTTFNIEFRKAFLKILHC
- assay-details: In vitro binding affinity towards Dopamine D2 receptor using [3H]spiperone as radioligand
pIC50: −log10 of the molar value.
Please go through the items and note down their pIC50.

In plain terms, `CCCN(CCC)CCc1ccc(NC(=O)C(F)(F)F)c(NC(=O)C(F)(F)F)c1` has a documented pIC50 of < 4.00

In plain terms, `CCCN(CCC)CCc1ccc(NC(C)=O)c(NC(C)=O)c1` has a documented pIC50 of < 4.00

In plain terms, `CCCN(CCC)CCc1ccc2[nH]c(O)nc2c1` has a documented pIC50 of < 4.00
